Below, each of the compounds is paired with its reported IC50 value.
- Test system: Mycobacterium tuberculosis variant bovis BCG
- test.method.notes: Antitubercular activity against dormant state Mycobacterium bovis BCG ATCC 35734 assessed as viable cells after 12 days by nitrate reductase assay
- Type: functional, organism-based
- condition.label: ATCC 35734, 288 h

O=C(/C=C\c1ccc(Cl)cc1Cl)N1N=C(c2ccncc2)OC1c1c[nH]c2ccccc12 (stereo not given)	1.5 µg/mL
O=C(/C=C\c1cccc([N+](=O)[O-])c1)N1N=C(c2ccncc2)OC1c1c[nH]c2ccccc12 (stereo not given)	> 30 µg/mL
O=C(/C=C\c1ccc(F)cc1)N1N=C(c2ccncc2)OC1c1c[nH]c2ccccc12 (stereo not given)	> 30 µg/mL

Ask: Fill in the blank: the reported IC50 of O=C(/C=C\c1cccc(Cl)c1Cl)N1N=C(c2ccncc2)OC1c1c[nH]c2ccccc12 (stereo not given) is ____.
Result: > 30 µg/mL

Ask: And COc1ccc(/C=C\C(=O)N2N=C(c3ccncc3)OC2c2c[nH]c3ccccc23)cc1 (stereo not given) ?
Result: > 30 µg/mL

---

Below, each of the compounds is paired with its reported IC50 value.
- System: Mycobacterium tuberculosis variant bovis BCG
- test.method.notes: Antitubercular activity against dormant state Mycobacterium bovis BCG ATCC 35734 assessed as viable cells after 12 days by nitrate reductase assay
- Format: functional, organism-based
- condition.label: ATCC 35734, 288 h

CO[C@H]1/C=C/O[C@@]2(C)Oc3c(C)c(O)c4c(O)c(c(/C=N/N5CCN(C)CC5)c(O)c4c3C2=O)NC(=O)/C(C)=C\C=C\[C@H](C)[C@H](O)[C@@H](C)[C@@H](O)[C@@H](C)[C@H](OC(C)=O)[C@@H]1C	0.0015 µg/mL
Cc1ccc(/C=C\C(=O)N2N=C(c3ccncc3)OC2c2c[nH]c3ccccc23)cc1 (stereo not drawn)	> 30 µg/mL

Next compound, IC50 to be filled in.
Ask: Fill in the blank: the reported IC50 of O=C(/C=C\c1ccc(Cl)cc1)N1N=C(c2ccncc2)OC1c1c[nH]c2ccccc12 (stereo not drawn) is ____.
Result: > 30 µg/mL

---

Below, each of the compounds is paired with its reported IC50 value.
- Tested on: Mycobacterium tuberculosis variant bovis BCG
- test.method.notes: Antitubercular activity against dormant state Mycobacterium bovis BCG ATCC 35734 assessed as viable cells after 12 days by nitrate reductase assay
- Assay type: functional, organism-based
- condition.label: ATCC 35734, 288 h
Respond with the bare value in µg/mL.

Solved cases below.
O=C(/C=C\c1ccccc1[N+](=O)[O-])N1N=C(c2ccncc2)OC1c1c[nH]c2ccccc12 (centres undefined)	0.36
O=C(/C=C\c1cccc(Br)c1)N1N=C(c2ccncc2)OC1c1c[nH]c2ccccc12 (centres undefined)	21.7

Next compound, IC50 to be filled in.
Ask: Fill in the blank: the reported IC50 of O=C(/C=C\c1ccc([N+](=O)[O-])cc1)N1N=C(c2ccncc2)OC1c1c[nH]c2ccccc12 (centres undefined) is ____.
Result: 1.37

---

- System: Mycobacterium tuberculosis variant bovis BCG
- test.method.notes: Antitubercular activity against dormant state Mycobacterium bovis BCG ATCC 35734 assessed as viable cells after 12 days by nitrate reductase assay
- Type: functional, organism-based
- condition.label: ATCC 35734, 288 h
Label Criterion met when IC50 is strictly below 20 µg/mL; at or above that, label Criterion not met.

O=C(/C=C\c1ccc(O)cc1)N1N=C(c2ccncc2)OC1c1c[nH]c2ccccc12 (stereo not given)	Criterion not met
O=C(/C=C/c1c(Cl)cccc1Cl)N1N=C(c2ccncc2)OC1c1c[nH]c2ccccc12 (stereo not given)	Criterion met
O=C(/C=C\c1ccccc1Cl)N1N=C(c2ccncc2)OC1c1c[nH]c2ccccc12 (stereo not given)	Criterion not met

Ask: Quick check: does `NNC(=O)c1ccncc1` have IC50 under 20 µg/mL?
Result: Criterion met

Ask: And O=C(/C=C\c1ccccc1)N1N=C(c2ccncc2)OC1c1c[nH]c2ccccc12 (stereo not given) ?
Result: Criterion met

Ask: And O=C(/C=C\c1cccc(Cl)c1)N1N=C(c2ccncc2)OC1c1c[nH]c2ccccc12 (stereo not given) ?
Result: Criterion not met

Ask: And O=C(/C=C\c1ccccc1O)N1N=C(c2ccncc2)OC1c1c[nH]c2ccccc12 (stereo not given) ?
Result: Criterion met

Ask: And O=C(/C=C\c1ccc(Br)cc1)N1N=C(c2ccncc2)OC1c1c[nH]c2ccccc12 (stereo not given) ?
Result: Criterion not met

Ask: And O=C(/C=C\c1ccccc1F)N1N=C(c2ccncc2)OC1c1c[nH]c2ccccc12 (stereo not given) ?
Result: Criterion not met

Source: ChEMBL document CHEMBL3779770
